Data provenance: patent US12486253B2

biological target: BRAF V600E (Homo sapiens, UniProt P15056, V600E); test: HiBiT cellular BRAF^V600E degradation assay; assay type: cell-based; details: A375.10 cells, 24 h; concentration at which 50% of total cellular BRAF^V600E is degraded
Sequence (P15056 whole entry V600E): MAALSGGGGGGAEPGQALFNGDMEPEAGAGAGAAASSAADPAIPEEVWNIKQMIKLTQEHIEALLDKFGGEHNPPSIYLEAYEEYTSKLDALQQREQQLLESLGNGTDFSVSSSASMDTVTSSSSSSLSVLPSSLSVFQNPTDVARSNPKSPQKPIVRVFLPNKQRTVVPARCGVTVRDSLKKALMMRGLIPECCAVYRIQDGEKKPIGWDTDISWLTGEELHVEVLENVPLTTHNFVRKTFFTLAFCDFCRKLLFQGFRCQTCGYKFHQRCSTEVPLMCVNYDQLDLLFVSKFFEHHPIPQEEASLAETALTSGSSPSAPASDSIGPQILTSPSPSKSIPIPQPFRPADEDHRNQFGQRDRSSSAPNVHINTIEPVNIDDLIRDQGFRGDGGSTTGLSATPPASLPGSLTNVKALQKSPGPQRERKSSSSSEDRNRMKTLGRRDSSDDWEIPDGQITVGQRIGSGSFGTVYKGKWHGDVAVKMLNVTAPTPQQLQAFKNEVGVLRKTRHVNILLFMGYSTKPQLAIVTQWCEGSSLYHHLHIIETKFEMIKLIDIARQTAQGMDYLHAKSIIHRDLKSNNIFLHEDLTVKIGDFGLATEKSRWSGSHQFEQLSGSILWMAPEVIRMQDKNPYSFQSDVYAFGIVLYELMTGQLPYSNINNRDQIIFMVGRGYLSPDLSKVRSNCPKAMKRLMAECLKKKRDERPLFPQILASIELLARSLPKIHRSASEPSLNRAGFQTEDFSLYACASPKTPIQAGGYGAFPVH
quantity.name: DC50 (nM)

Solved entries (count: 5):
[[record]]
compound = "CCN(C)S(=O)(=O)Nc1ccc(F)c(Oc2ccc3ncn([C@H]4COC5(CCN(C(=O)CN6CCC(c7ccc(C8CCC(=O)NC8=O)cc7F)C(F)(F)C6)CC5)C4)c(=O)c3c2)c1C#N (stereo partly shown)"
quantity_name = "DC50"
value_reported = 9.48

[[record]]
compound = "CCN(C)S(=O)(=O)Nc1ccc(F)c(Oc2ccc3ncn(-c4cnc(N5CCN(C(=O)CN6CCC(c7ccc(N[C@H]8CCC(=O)NC8=O)cc7F)CC6)CC5)nc4)c(=O)c3c2O)c1C#N"
quantity_name = "DC50"
value_reported = 16.3

[[record]]
compound = "CCN(C)S(=O)(=O)Nc1ccc(F)c(Oc2ccc3ncn(-c4cnc(N5CCN(C(=O)CN6CCC(c7ccc(N[C@@H]8CCC(=O)NC8=O)cc7F)CC6)CC5)nc4)c(=O)c3c2O)c1C#N"
quantity_name = "DC50"
value_reported = 34.2

[[record]]
compound = "CCN(C)S(=O)(=O)Nc1ccc(F)c(Oc2ccc3ncn(C4CC5(CCN(C(=O)[C@H]6C[C@H](N7CC(c8ccc(NC9CCC(=O)NC9=O)cc8F)C7)C6)CC5)C4)c(=O)c3c2)c1C#N (stereo partly shown)"
quantity_name = "DC50"
value_reported = 27.5

[[record]]
compound = "CCN(C)S(=O)(=O)Nc1ccc(F)c(Oc2ccc3ncn([C@H]4COC5(CCN(C(=O)CC6(F)CCN(c7cc8c(cc7F)c(N7CCC(=O)NC7=O)nn8C)CC6)CC5)C4)c(=O)c3c2)c1C#N"
quantity_name = "DC50"
value_reported = 42.5


(A) CCN(C)S(=O)(=O)Nc1ccc(F)c(Oc2ccc3ncn([C@@H]4CCC5(CCN(C(=O)CN6CCC(c7ccc(NC8CCC(=O)NC8=O)cc7F)CC6)CC5)C4)c(=O)c3c2Cl)c1C#N (single isomer, unassigned)
(B) CCN(C)S(=O)(=O)Nc1ccc(F)c(Oc2ccc3ncn([C@H]4COC5(CCN(C(=O)CN6CCCC(c7ccc(NC8CCC(=O)NC8=O)cc7F)CC6)CC5)C4)c(=O)c3c2)c1C#N (stereo partly shown)
(C) CCN(C)S(=O)(=O)Nc1ccc(F)c(Oc2ccc3ncn(C4CC5(CCN(C(=O)CN6CCC(c7ccc8c(C9CCC(=O)NC9=O)nn(C)c8c7)CC6)CC5)C4)c(=O)c3c2)c1C#N (stereo not shown)
Rank by DC50 (largest to smallest). Quick reminder: the answer is the labels in the order asked.
B, A, C
(B: 50.1 nM, A: 30.5 nM, C: 10.7 nM)
